Tested on: HOP-92
Assay: NCI tumour cell line growth inhibition, 48 h
Active and inactive are the calls of the source. Rule as the data show it: active = GI50 up to about 1.1 µM and inactive = higher.
readoutType: GI50

Task: Note GI50 for the molecule shown: `COc1cc(/C=C2\N=C(c3ccccc3)N(c3nc4c(Cl)cc(Cl)cc4s3)C2=O)ccc1O`
Output: 21.3 µM (inactive)

Task: Note GI50 for the molecule shown: CC(C)(C)[Si](C)(C)OCC1OC(n2ccc(=O)[nH]c2=O)C(O[Si](C)(C)C(C)(C)C)/C1=C/C#N (stereo unspecified)
Output: 5.93 µM (inactive)

Task: Note GI50 for the molecule shown: `CN1CCC(C(=O)NNc2ccccc2)CC1`
Output: > 100 µM (inactive)

Task: Note GI50 for the molecule shown: OC12C3C4CC5C(C4[C@@H]1Br)C2[C@@](O)(c1c(F)c(F)c(F)c(F)c1F)C53 (stereo partly specified)
Output: 24 µM (inactive)

Task: Note GI50 for the molecule shown: `Cc1ncc(COP(=O)(O)O)c(/C=C2\SC(=S)NC2=O)c1O`
Output: > 74.5 µM (inactive)

Task: Note GI50 for the molecule shown: `Cc1c2ccccc2c(CO)c2cc(F)c3ccccc3c12`
Output: 32.4 µM (inactive)

Task: Note GI50 for the molecule shown: c1ccc2c(c1)CCN1CCc3c([nH]c4ccccc34)C21 (stereo unspecified)
Output: 22.2 µM (inactive)

Task: Note GI50 for the molecule shown: CC(C)[Si]1(C(C)C)OCC2OC(n3cnc4c(N)ncnc43)C(N)C2O[Si](C(C)C)(C(C)C)O1 (stereo unspecified)
Output: 11.8 µM (inactive)

Task: Note GI50 for the molecule shown: N#CC1=C(N)OC2=C(CCCc3ccccc32)C1c1ccc([N+](=O)[O-])cc1 (stereo unspecified)
Output: 19.1 µM (inactive)

Task: Note GI50 for the molecule shown: CSC1NC=Nc2c1sc(=S)n2-c1ccccc1 (stereo unspecified)
Output: 83.8 µM (inactive)

Task: Note GI50 for the molecule shown: `COC(OC)c1cc2c(cc1C(=O)[C@@]13CCC[C@@H]1NC(=O)O3)OCO2`
Output: > 100 µM (inactive)

Task: Note GI50 for the molecule shown: Cc1ccc(/N=N/C(C2=NC(=O)CS2)c2nc3ccccc3[nH]2)cc1 (stereo unspecified)
Output: > 100 µM (inactive)

Task: Note GI50 for the molecule shown: COc1nc(N)c(/N=C/C(OC(C)=O)C(OC(C)=O)C(COC(C)=O)OC(C)=O)c(=O)n1C (stereo unspecified)
Output: > 100 µM (inactive)

Task: Note GI50 for the molecule shown: `O=C(Cc1ccccc1)NN1C(=O)/C(=C\c2cccc([N+](=O)[O-])c2)S/C1=N\c1ccccc1`
Output: 44 µM (inactive)

Task: Note GI50 for the molecule shown: `FC(F)(F)c1cnc(N/N=C(/c2ccccc2)c2ccccn2)c(Cl)c1`
Output: 8.75 µM (inactive)

Task: Note GI50 for the molecule shown: `CCOC(=O)c1[nH]c(COC(C)=O)c2c1CCCCCCCCCC2`
Output: > 100 µM (inactive)

* * *

Give measured GI50 for each item. Keep answers brief.
System: TK-10
Assay: NCI tumour cell line growth inhibition, 48 h
Activity calls are given as the source filed them. Cut-off read from the data, not from the text of the source: active = GI50 up to about 1.1 µM and inactive = higher.

Task: Note GI50 for the molecule shown: `COc1cc(OC)nc(Nc2c(C#N)c3nc4ccccc4n3c3ccccc23)n1`
Output: 26.5 µM (inactive)

Task: Note GI50 for the molecule shown: COc1ccc(C2SC(=N)Nc3c2c(C)nn3C(=O)c2ccncc2)cc1OC (stereo not given)
Output: > 10 µM (inactive)

Task: Note GI50 for the molecule shown: `CC(C)CCNC(=O)c1ccc(CNC(=O)/C=C/c2csc(-c3ccccc3)n2)cc1`
Output: 53.2 µM (inactive)

Task: Note GI50 for the molecule shown: CCCCOP1(=O)C=C(C)C(=C(Cl)Cl)C(C)=C1 (stereo not given)
Output: 11.2 µM (inactive)

Task: Note GI50 for the molecule shown: `COc1ccc(C(=O)c2nc3ccccc3nc2N2CCN(c3ccccc3)CC2)cc1OC`
Output: > 100 µM (inactive)

Task: Note GI50 for the molecule shown: `COC(=O)c1cnc(Cl)c([N+](=O)[O-])c1`
Output: 16.3 µM (inactive)

Task: Note GI50 for the molecule shown: `CC(C)(C)CC(N)=O`
Output: > 100 µM (inactive)

Task: Note GI50 for the molecule shown: `O=C1C=C2CO[C@H]3OC[C@H](O)[C@@H]1[C@@H]23`
Output: 59.3 µM (inactive)

Task: Note GI50 for the molecule shown: CN1c2c(O)nc(N)nc2NCC1CCNc1ccc(C(=O)NC(CCC(=O)O)C(=O)O)cc1 (stereo not given)
Output: 1030 µM (inactive)

Task: Note GI50 for the molecule shown: `Cc1c(C(C)C)cc(OCCO)cc1C(C)C`
Output: > 100 µM (inactive)

* * *

Give measured GI50 for each item. Keep answers brief.
Tested on: M14
Experiment: NCI tumour cell line growth inhibition, 48 h
Active and inactive are the calls of the source. No stated cut-off is given here; in the data, active = GI50 up to about 1.1 µM and inactive = higher.

Task: Note GI50 for the compound shown: CC(C)(C)OP(=O)(OC(C)(C)C)C(O)c1ccc(/C=C(\C#N)C(N)=O)cc1 (stereo unspecified)
Output: > 100 µM (inactive)

Task: Note GI50 for the compound shown: `Nc1cc2c3c(cccc3c1)C(=O)N(c1ccc(OCCN3CCCCC3)cc1)C2=O`
Output: 15.5 µM (inactive)

Task: Note GI50 for the compound shown: `NCC[Se][Se]CCN`
Output: 3.83 µM (inactive)

Task: Note GI50 for the compound shown: OC12C3C4CC5C(C4[C@@H]1Br)C2[C@@](O)(c1c(F)c(F)c(F)c(F)c1F)C53 (stereo partly specified)
Output: 37 µM (inactive)

Task: Note GI50 for the compound shown: `CC[n+]1cnc(N)c2c(-c3ccc(Cl)cc3)cn(-c3ccc(C)cc3)c21`
Output: 1.94 µM (inactive)

Task: Note GI50 for the compound shown: `CN1CCN(C(=O)CCNC(=O)Cc2ccc(C(=O)c3ccccc3)cc2)CC1`
Output: > 100 µM (inactive)

Task: Note GI50 for the compound shown: `CN1CCC(C(=O)NNc2ccccc2)CC1`
Output: 1.5 µM (inactive)

Task: Note GI50 for the compound shown: COC1CC2CCC(C)[C@](O)(O2)C(=O)C(=O)N2CCCCC2C(=O)OC(C(C)CC2CCC(O)C(OC)C2)CC(=O)C(C)C=C(C)C(OC(=O)CN(C)C)C(OC)C(=O)C(C)CC(C)/C=C/C=C/C=C\1C (stereo partly specified)
Output: 7.43 µM (inactive)

Task: Note GI50 for the compound shown: `COc1ccc(C(=O)/C=C2\C(=O)Nc3ccc(Br)cc32)cc1`
Output: 12 µM (inactive)

Task: Note GI50 for the compound shown: `COc1ccccc1-n1nnc2c(N)nc(N)nc21`
Output: > 100 µM (inactive)

Task: Note GI50 for the compound shown: CSc1nc(NC2OCC(OC(C)=O)C(OC(C)=O)C2OC(C)=O)c(/N=C\C=N\c2c(NC3OCC(OC(C)=O)C(OC(C)=O)C3OC(C)=O)nc(SC)n(C)c2=O)c(=O)n1C (stereo unspecified)
Output: > 100 µM (inactive)

* * *

Test system: SF-295
Assay: NCI tumour cell line growth inhibition, 48 h
Active and inactive are the calls of the source. Cut-off read from the data, not from the text of the source: active = GI50 up to about 1.1 µM and inactive = higher.
Give measured GI50 for each item. Keep answers brief.

Task: Note GI50 for the molecule shown: `c1csc(-c2ccc(-c3cccc4nsnc34)s2)c1`
Output: 44.8 µM (inactive)

Task: Note GI50 for the molecule shown: CSc1nc(NC2OCC(OC(C)=O)C(OC(C)=O)C2OC(C)=O)c(/N=C\C=N\c2c(NC3OCC(OC(C)=O)C(OC(C)=O)C3OC(C)=O)nc(SC)n(C)c2=O)c(=O)n1C (configuration not stated)
Output: > 100 µM (inactive)

Task: Note GI50 for the molecule shown: N#C/C(=C1\SC(/N=N/c2ccc(Cl)cc2)C(=O)N1c1ccccc1)c1nc2ccccc2[nH]1 (configuration not stated)
Output: 18.5 µM (inactive)

Task: Note GI50 for the molecule shown: C[N+]1(CCN[N+]2(C)CCCCC2)CCc2ccccc2C1 (configuration not stated)
Output: > 100 µM (inactive)

Task: Note GI50 for the molecule shown: COc1ccc(/C=C2\CCC(CN(C)C)C2=O)cc1OC (configuration not stated)
Output: 15.1 µM (inactive)

Task: Note GI50 for the molecule shown: COC(=O)C1=C(O)C(C(=O)OC)[C@]2(O)[C@H](C(=O)OC)[C@H]1C[C@@H](c1ccc(C(F)(F)F)cc1)[C@H]2C(=O)OC (some centres not stated)
Output: 4 µM (inactive)

Task: Note GI50 for the molecule shown: `CC1(C)OC[C@@]2([C@@H]3CC[C@@H](C3)C2(C)C)N1O`
Output: > 100 µM (inactive)

Task: Note GI50 for the molecule shown: `CSc1ccc2c(cc1=O)[C@@H](NC(=O)c1ccc(N)cc1)CCc1cc(O)c(O)c(O)c1-2`
Output: 15.7 µM (inactive)

Task: Note GI50 for the molecule shown: `C=C1C(=O)O[C@@H]2C[C@@]3(C)CC(=O)C=C(C)[C@@H]3C[C@H]12`
Output: 33.1 µM (inactive)

Task: Note GI50 for the molecule shown: `COC(=O)[C@@]12CCCC(=O)[C@@H]1[C@H]1CCCC[C@H]12`
Output: > 100 µM (inactive)

Task: Note GI50 for the molecule shown: Cc1cccc(C)c1NC(=O)C(=O)C(c1ccccc1Cl)S(=O)(=O)Cc1ccccc1Cl (configuration not stated)
Output: 23.7 µM (inactive)

Task: Note GI50 for the molecule shown: `CCCCc1ccc(Nc2nc(Cl)c3ncn(COCCOC(C)=O)c3n2)cc1`
Output: 17.4 µM (inactive)

Task: Note GI50 for the molecule shown: CC(C)=CCC/C(C)=C/CC/C(C)=C/CCC1(C)CCC([C@H](C)C(=O)O)OO1.CC1=C(CC/C(C)=C/CCC2(C)CCC([C@H](C)C(=O)O)OO2)C(C)(C)CCC1 (some centres not stated)
Output: > 100 µM (inactive)

Task: Note GI50 for the molecule shown: CC(=O)O[C@H]1CC[C@H]2[C@@H]3CCC4=C(C(=O)C=CC4(C)OC(C)=O)[C@H]3CC[C@]12C (some centres not stated)
Output: 98.4 µM (inactive)

Task: Note GI50 for the molecule shown: `COc1ccc(/C=C/C(=O)c2sc(Nc3ccc([N+](=O)[O-])cc3)nc2C)cc1`
Output: 23.3 µM (inactive)

Task: Note GI50 for the molecule shown: `Nc1cccc(S(=O)(=O)Nc2nnc(S(N)(=O)=O)s2)c1`
Output: > 100 µM (inactive)

Task: Note GI50 for the molecule shown: `CSc1ccc(/C=C/c2ccnc3ccccc23)cc1`
Output: 14.4 µM (inactive)
